- Test system: 266295-075-R-J1-PDC spheroid viability
- experiment: Anticancer human tumor 266295-075-R-J1-PDC patient-derived head and neck squamous carcinoma cell line growth inhibition [POLQ]
- recorded_conditions: second compound 0.1 µM; first compound 1 µM; hits give low values; spheroids with HUVEC and MSC
Rule: viability, T/C below 80% gives yes (1), anything at or above gives no (0).

{"compound": "C=CC(=O)N1CCN(c2nc(=O)n(-c3c(C)ccnc3C(C)C)c3nc(-c4c(O)cccc4F)c(F)cc23)C(C)C1 (stereo not drawn) + Nc1ccc(C#CCN(C(=O)Cc2ncc(C(F)(F)F)cc2C(F)(F)F)c2ccc(F)cc2)nn1", "class_name": "no (0)"}
{"compound": "CCc1cc2c(N3CCc4c(cc(Cn5ccnc5)cc4-c4cn(C)nc4C(F)(F)F)C3=O)ccnc2c(OC)n1 + Nc1ccc(C#CCN(C(=O)Cc2ncc(C(F)(F)F)cc2C(F)(F)F)c2ccc(F)cc2)nn1", "class_name": "no (0)"}
{"compound": "COc1ccc([C@@H](O)c2cc(-c3ncnc4cc(N5CCOCC5)ccc34)c(F)cc2Cl)nn1 + Nc1ccc(C#CCN(C(=O)Cc2ncc(C(F)(F)F)cc2C(F)(F)F)c2ccc(F)cc2)nn1", "class_name": "yes (1)"}
{"compound": "Nc1ccn(C2OC(CO)C(O)C2(F)F)c(=O)n1 (stereo not drawn) + COC1C(OC(N)=O)C(O)C(Oc2ccc3c(O)c(NC(=O)c4ccc(O)c(CC=C(C)C)c4)c(=O)oc3c2C)OC1(C)C", "class_name": "no (0)"}
{"compound": "O=c1[nH]cc(F)c(=O)[nH]1 + Cc1cccc(N(C)C(=O)C2C(O)CCN2c2nc(C)cc(C(F)(F)F)c2C#N)c1", "class_name": "no (0)"}
{"compound": "COc1cccc(OCCCN)c1-c1cc(Nc2cnc(C#N)cn2)n[nH]1 + COC1C(OC(N)=O)C(O)C(Oc2ccc3c(O)c(NC(=O)c4ccc(O)c(CC=C(C)C)c4)c(=O)oc3c2C)OC1(C)C", "class_name": "yes (1)"}

###

Attribute: viability, T/C
- System: 266295-075-R-J1-PDC spheroid viability
- experiment: Anticancer human tumor 266295-075-R-J1-PDC cell line growth inhibition [POLQ];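 also: spheroids exposed to compounds for seven days before readout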
- recorded_conditions: second compound 0.0316 µM; first compound 10 µM; hits give low values; spheroids with HUVEC and MSC
- Procedure: Multicellular complex tumor spheroid response to Polymerase (POL) inhibitors (novobiocin, ART-558, RP6685) in combination with a variety of drugs and investigational agents in selected tumor cell lines The POL inhibitors (novobiocin, ART-558, and RP6685) were evaluated both individually and in combination with standard of care and investigational anticancer small molecules within a complex spheroid model of solid tumors. . […]
measured_quantity: viability, T/C (%)

{"compound": "CCc1cc2c(N3CCc4c(cc(Cn5ccnc5)cc4-c4cn(C)nc4C(F)(F)F)C3=O)ccnc2c(OC)n1 + COC1C(OC(N)=O)C(O)C(Oc2ccc3c(O)c(NC(=O)c4ccc(O)c(CC=C(C)C)c4)c(=O)oc3c2C)OC1(C)C", "uom": "%", "test_result": 132}
{"compound": "Nc1ccn(C2OC(CO)C(O)C2(F)F)c(=O)n1 (configuration not stated) + Cc1cccc(N(C)C(=O)C2C(O)CCN2c2nc(C)cc(C(F)(F)F)c2C#N)c1", "uom": "%", "test_result": 69.4}
{"compound": "CC(C)n1c(=O)n(C)c2cnc3cc(F)c(-c4ccc(OCCCN5CCCCC5)nc4)cc3c21 + Cc1cccc(N(C)C(=O)C2C(O)CCN2c2nc(C)cc(C(F)(F)F)c2C#N)c1", "uom": "%", "test_result": 60.7}
{"compound": "C=CC(=O)N1CCN(c2nc(=O)n(-c3c(C)ccnc3C(C)C)c3nc(-c4c(O)cccc4F)c(F)cc23)C(C)C1 (configuration not stated) + Cc1cccc(N(C)C(=O)C2C(O)CCN2c2nc(C)cc(C(F)(F)F)c2C#N)c1", "uom": "%", "test_result": 126}
{"compound": "CCCS(=O)(=O)Nc1ccc(F)c(C(=O)c2c[nH]c3ncc(-c4ccc(Cl)cc4)cc23)c1F + Nc1ccc(C#CCN(C(=O)Cc2ncc(C(F)(F)F)cc2C(F)(F)F)c2ccc(F)cc2)nn1", "uom": "%", "test_result": 160}
{"compound": "O=c1[nH]cc(F)c(=O)[nH]1 + Cc1cccc(N(C)C(=O)C2C(O)CCN2c2nc(C)cc(C(F)(F)F)c2C#N)c1", "uom": "%", "test_result": 85.1}
{"compound": "CC(C)n1c(=O)n(C)c2cnc3cc(F)c(-c4ccc(OCCCN5CCCCC5)nc4)cc3c21 + Nc1ccc(C#CCN(C(=O)Cc2ncc(C(F)(F)F)cc2C(F)(F)F)c2ccc(F)cc2)nn1", "uom": "%", "test_result": 76.3}
{"compound": "CC1COCCN1c1cc(C2(S(C)(=N)=O)CC2)nc(-c2ccnc3[nH]ccc23)n1 (configuration not stated) + Nc1ccc(C#CCN(C(=O)Cc2ncc(C(F)(F)F)cc2C(F)(F)F)c2ccc(F)cc2)nn1", "uom": "%", "test_result": 63}
{"compound": "CC1COCCN1c1cc(C2(S(C)(=N)=O)CC2)nc(-c2ccnc3[nH]ccc23)n1 (configuration not stated) + COC1C(OC(N)=O)C(O)C(Oc2ccc3c(O)c(NC(=O)c4ccc(O)c(CC=C(C)C)c4)c(=O)oc3c2C)OC1(C)C", "uom": "%", "test_result": 56.8}
{"compound": "COc1cc2cc(C(=O)CCC(=O)O)sc2cc1OC + Cc1cccc(N(C)C(=O)C2C(O)CCN2c2nc(C)cc(C(F)(F)F)c2C#N)c1", "uom": "%", "test_result": 96}
{"compound": "O=C(Nc1ccc(O)c(NS(=O)(=O)c2ccc(F)cc2)c1)c1ccc(-c2ccccc2)cc1 + Nc1ccc(C#CCN(C(=O)Cc2ncc(C(F)(F)F)cc2C(F)(F)F)c2ccc(F)cc2)nn1", "uom": "%", "test_result": 87.8}
{"compound": "C#Cc1c(F)ccc2cc(O)cc(-c3ncc4c(N5CC6CCC(C5)N6)nc(OCC56CCCN5CC(F)C6)nc4c3F)c12 (configuration not stated) + Nc1ccc(C#CCN(C(=O)Cc2ncc(C(F)(F)F)cc2C(F)(F)F)c2ccc(F)cc2)nn1", "uom": "%", "test_result": 50}
